Target: hCB1b (Homo sapiens)
Construct: expressed in transfected cells
Sequence (P21554 1-439 isoform P21554-3): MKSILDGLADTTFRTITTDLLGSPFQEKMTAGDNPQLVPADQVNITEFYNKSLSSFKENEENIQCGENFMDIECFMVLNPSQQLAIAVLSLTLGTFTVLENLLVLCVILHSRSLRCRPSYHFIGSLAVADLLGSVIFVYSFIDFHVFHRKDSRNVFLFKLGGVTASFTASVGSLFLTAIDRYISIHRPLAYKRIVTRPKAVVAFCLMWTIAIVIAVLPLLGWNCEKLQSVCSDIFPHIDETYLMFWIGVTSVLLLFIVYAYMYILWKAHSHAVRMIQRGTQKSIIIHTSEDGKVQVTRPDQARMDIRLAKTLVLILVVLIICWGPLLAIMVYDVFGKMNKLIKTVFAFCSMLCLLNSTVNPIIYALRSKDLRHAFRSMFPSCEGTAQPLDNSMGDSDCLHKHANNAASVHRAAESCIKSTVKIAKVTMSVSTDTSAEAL
Test: biochemical
Assay type: biochemical
Settings: read-out: EC50 hCB1b
value.type: EC50

Ask: Determine from records and report EC50 for "CCCCC/C=C\C/C=C\C/C=C\C/C=C\CCCCOC(CO)CO"
Reply: > 1 µM

###

Target: un-spliced human CB 1 receptor (Homo sapiens)
Sequence (P21554 whole entry, canonical isoform): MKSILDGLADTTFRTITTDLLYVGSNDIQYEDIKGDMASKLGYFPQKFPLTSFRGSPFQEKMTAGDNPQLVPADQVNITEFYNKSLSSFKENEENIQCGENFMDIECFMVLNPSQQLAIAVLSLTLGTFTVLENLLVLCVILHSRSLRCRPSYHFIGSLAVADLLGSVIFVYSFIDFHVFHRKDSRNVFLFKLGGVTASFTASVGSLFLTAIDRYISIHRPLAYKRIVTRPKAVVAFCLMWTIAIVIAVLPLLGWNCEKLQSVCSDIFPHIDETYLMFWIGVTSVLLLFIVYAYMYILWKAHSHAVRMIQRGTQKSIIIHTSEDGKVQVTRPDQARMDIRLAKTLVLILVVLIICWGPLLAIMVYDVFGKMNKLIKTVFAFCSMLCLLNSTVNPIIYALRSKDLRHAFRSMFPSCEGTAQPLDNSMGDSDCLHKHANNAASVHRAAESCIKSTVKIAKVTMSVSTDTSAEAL
Assay: FLIPR intracellular calcium mobilization assay (Fluo-3), HEK-293S cells expressing un-spliced hCB1 receptor and Gα16
value.type: EC50 (nM)
Answer format: numeric, nM implied, no suffix.

Ask: For the compound "CCCCCCC(C)(C)c1cc(O)c2c(c1)OC(C)(C)[C@@H]1CC=C(CO)C[C@@H]21" , report EC50.
Reply: 0.06
